# System: L1210 leukemia ip in BDF1 mice, survival T/C
# protocol: NCI In Vivo Anticancer Drug Screen. Data for tumor model L1210 Leukemia (intraperitoneal) in B6D2F1 (BDF1) mice
# conditionContext: endpoint: mean survival time; dose: 200.0 mg/kg/injection; schedule: Q04DX003 (ip); vehicle: saline; higher = longer survival
Inconclusive results and toxic doses are left out.
Property: T/C; scope: individual compounds

Sample answers from the record:
INSERT INTO assay_data (compound, readoutvalue) VALUES
  ('CCOC(=O)C1CCC1C(=O)OCC (stereo unspecified)', '102 % of control'),
  ('c1ccc(P2CCc3[nH]c4ccccc4c3C2)cc1 (stereo unspecified)', '96 % of control'),
  ('COc1ccc(C(=NO)c2ccc(OC)cc2)cc1', '93 % of control');

API: the following record is the query input.
Data point: COC(=O)c1ccncc1 ; T/C = 98 % of control

// provenance: PubChem BioAssay AID248
